tested on: RXF 393 renal; assay: NCI tumour cell line growth inhibition, 48 h
Each entry below carries its recorded log10(TGI).
Answers are given as log10 of TGI in µM.

Solved entries:
# TEST SMILES, log10(TGI)
measured = [
    ("CCN1CCN(Cc2ccc(NC(=O)c3nc4ccc5[nH]ncc5c4c4c3CCCC4)cc2C(F)(F)F)CC1", 0.16),
    ("[O-][n+]1c2cc3c(cc2[n+]([O-])c2c(O)cccc21)CN(CCN1CCOCC1)C3", 1.63),
    ("Cc1nc2c(nc1C)C(=O)C1=C(C2=O)C2C=CC1CC2", 1.27),
    ("N#Cc1c(N)c2c(c(-c3ccccc3)c1-c1ccccc1)C(=O)N(NC(=S)Nc1ccccc1)C2=O", 1.97),
]

Task: Reported log10(TGI) for c1ccc(-c2nc([P+](c3ccccc3)(c3ccccc3)c3ccccc3)c(N3CCOCC3)o2)cc1 : what is it?
Result: 0.87

Task: What log10(TGI) value was documented for this molecule, CCOC(=O)NC(C(F)(F)F)(C(F)(F)F)P(=O)(OCC(C)C)OCC(C)C ?
Result: 1.39

* * *

tested on: HL-60(TB) leukemia; experiment: NCI tumour cell line growth inhibition, 48 h
MEASURE: TGI (µM)
Kindly answer with a numeric value in µM, unit omitted.

# MOLECULE, MEASURE, VAL
data = [
    ("CCC(C)C1=NC(C(=O)N/C=C\\c2c[nH]c3cc(Br)c(Br)cc23)(C(C)C)NC1=O (stereo unspecified)", "TGI", 59.6),
    ("COc1ccc(OC)c(CCc2cc(OC)ccc2OC)c1", "TGI", 5.28),
]

Now examine the next entry.
Task: I have this molecule here, CCCCCCCCCCCCCC(=S)N/C=C/OC , and I need its recorded TGI.
Result: 36.8

* * *

# reported TGI; entries follow
system: SK-OV-3 ovarian; test: NCI tumour cell line growth inhibition, 48 h

Previously resolved entries follow.
# COMPOUND, TGI
measured = [
    ("C/C(=N\\NC(=S)N1CCN(c2ccccn2)CC1)c1cccc(C)n1", "21.4 µM"),
    ("Cc1cccc(-c2cc(=O)c3cc(C)c(C)c(C(=O)O)c3o2)c1", "> 100 µM"),
    ("CC1C=CC(O)[C@]2(CO)CC3(CCC12)OCCO3 (stereo not given in full)", "> 100 µM"),
    ("Cc1ccc(/C(=C/C=C(/C#N)C(N)=O)Sc2ncnn2C)cc1", "> 62.3 µM"),
    ("Clc1ccc(Cc2nc3cc(Cl)ccc3o2)cc1", "68.7 µM"),
    ("Cc1nn(CN2CCN(C)CC2)c(=S)n1/N=C/c1ccc(-c2ccc(Cl)cc2Cl)o1", "> 100 µM"),
    ("CC1(C)OC(CCC#N)CN1C(=O)OCc1ccccc1 (stereo not given)", "> 100 µM"),
    ("COc1ccc2[nH]c(Cl)c(/C=C3/C(=O)N(c4ccccc4)c4ccccc43)c2c1", "10.8 µM"),
]

Task: I would be grateful if you could share the reported TGI for NC(N)=NS(=O)(=O)c1ccc(NC(=O)c2cccc3c(Nc4ccc(S(=O)(=O)N=C(N)N)cc4)c4ccccc4nc23)cc1 .
Result: > 100 µM

Task: Fill in the blank: the reported TGI of COc1ccc2nc3n(c2c1)C(c1c(F)cccc1Cl)SC3 (stereo not given) is ____.
Result: > 100 µM
